# target.desc: T1, recombinant C-terminally truncated RSV (A2 strain) F protein (RSV (A2 strain), UniProt P03420 26-524)
# T1 construct: extracellular domain; also called truncated F protein; extracellular domain of the F protein from RSV A2
# assay.explanation: SPR (BIAcore), Fab over immobilised F
observable: kon (M⁻¹ s⁻¹)
Number in M⁻¹ s⁻¹, nothing else.

## Task Requested read-out: kon. Entry: 1X-493L1FR Fab (Fab, V domains shown, also called IX-493L1FR) VH: QVTLRESGPALVKPTQTLTLTCTFSGFSLSTSGMSVGWIRQPPGKALEWLADIWWDDKKDYNPSLKSRLTISKDTSKNQVVLKVTNMDPADTATYYCARSMITNWYFDVWGQGTTVTVSS VL: DIQMTQSPSTLSASVGDRVTITCSASSSVGYMHWYQQKPGKAPKLLIYDTSKLASGVPSRFSGSGSGTEFTLTISSLQPDDFATYYCFQGSGYPFTFGGGTKVEIK
## Result 185000

## Task PFFF Fab (Fab, name in Kabat numbering, V domains shown) VH: QVTLRESGPALVKPTQTLTLTCTFSGFSLSTPGMSVGWIRQPPGKALEWLADIWWDDKKDYNPSLKSRLTISKDTSKNQVVLKVTNMDPADTATYYCARSMITNFYFDVWGQGTTVTVSS VL: DIQMTQSPSTLSASVGDRVTITCSASSSVGYMHWYQQKPGKAPKLLIYDTFKLASGVPSRFSGSGSGTEFTLTISSLQPDDFATYYCFQGSFYPFTFGGGTKVEIK ?
## Result 110000

## Task S52F Fab (Fab, name in Kabat numbering, V domains shown) VH: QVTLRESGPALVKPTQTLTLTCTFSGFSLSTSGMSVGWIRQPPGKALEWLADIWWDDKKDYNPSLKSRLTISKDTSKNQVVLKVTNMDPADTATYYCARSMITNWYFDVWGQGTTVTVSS VL: DIQMTQSPSTLSASVGDRVTITCSASSSVGYMHWYQQKPGKAPKLLIYDTFKLASGVPSRFSGSGSGTEFTLTISSLQPDDFATYYCFQGSGYPFTFGGGTKVEIK ?
## Result 206000
